We begin with a simple list: items and their reported yeast fitness.
B1: tRNA (parent)
chain: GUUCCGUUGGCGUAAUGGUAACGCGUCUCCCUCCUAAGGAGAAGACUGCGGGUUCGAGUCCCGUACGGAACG

Variants of: B1
Protocol notes: yeast fitness relative to wild type (ratio to wild type); higher = fitter; tRNA-Arg(CCU), competitive growth, 37 C, YPD
Variants at the floor of the assay were thinned out.
Form rule: numeric answer, no unit written next to it.

Here's what some known entries look like.
- Mutation spec: "A15C A20G A70C"
  yeast fitness: 0.6
- Mutation spec: "G6A G23C C60A"
  yeast fitness: 0.573
- Mutation spec: "G6A A45G G67U"
  yeast fitness: 0.687
- Mutation spec: "C5G G58C A69C"
  yeast fitness: 0.794
- Mutation spec: "C34U C46A C55G"
  yeast fitness: 0.672

# query: yeast fitness of entry C5A G48A C49G 0.682

# query: yeast fitness of entry G9A C11U C66U 0.779

# query: yeast fitness of entry G12C U47A A70G 0.554

# query: yeast fitness of entry U47A C62G 0.856

# query: yeast fitness of entry C5U C31U 1.03
